In this section, each of the compounds is paired with its reported IC50.
Target: hCB1 (Homo sapiens, UniProt P21554)
Sequence (P21554 whole entry): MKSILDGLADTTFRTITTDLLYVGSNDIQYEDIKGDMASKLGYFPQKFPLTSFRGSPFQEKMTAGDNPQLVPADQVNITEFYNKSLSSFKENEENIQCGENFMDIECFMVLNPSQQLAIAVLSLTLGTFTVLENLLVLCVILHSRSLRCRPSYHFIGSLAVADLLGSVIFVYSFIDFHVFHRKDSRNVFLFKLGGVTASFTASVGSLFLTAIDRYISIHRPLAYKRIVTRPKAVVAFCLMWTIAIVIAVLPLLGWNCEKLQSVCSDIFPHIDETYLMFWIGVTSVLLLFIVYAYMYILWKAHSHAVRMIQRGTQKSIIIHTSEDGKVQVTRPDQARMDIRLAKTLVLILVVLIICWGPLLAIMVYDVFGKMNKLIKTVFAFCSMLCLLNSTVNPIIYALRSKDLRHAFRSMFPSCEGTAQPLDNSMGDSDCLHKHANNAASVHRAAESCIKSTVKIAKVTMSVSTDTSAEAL
Assay: Agonism of CB1 receptors expressed in CHO cells, forskolin cAMP assay (Protocol IX.2)
Method: IX. Assay for Determining Agonist and Antagonist Activity to CB1 and CB2 Receptors 2. Agonism of CB1/CB2 Receptors Expressed in CHO Cells h-CB1/CHO or h-CB2/CHO cells were grown in HAM's F12 DMEM medium (Sigma) with 10% FBS (Hyclone), 1% penicillin-streptomycin solution and 400 μg/ml of G418 (Sigma). […] At the end of incubation, cells were lysed using lysis reagent from the cAMP estimation kit and cAMP was quantitated by chemiluminescence method described in the manufacturer's instructions (DiscoveRX). […]
OUTCOME_MEASURE: IC50 (nM)

1. C[C@H](NC(=O)c1nn(-c2ccc(Cl)cc2)c2c1C1CC3CC(C1)CC2C3)c1ccccc1 | 18.9
2. CC(C)(C)NC(=O)c1nn(-c2ccc(F)cc2F)c2c1C1CCC2C1 (stereo not drawn) | 10900
3. CC(C)(NC(=O)c1nn(-c2ccc(Cl)cc2)c2c1C1CC3CC(C1)CC2C3)c1ccccc1 | 38.3
